These measurements were taken from patent US11897917B2.

# System: α-phenyl-β-hydroxy aldehyde-LYRAG 50
# protocol.text: screening of aniline catalysts and buffer for retro-aldol decomposition of aldol-LYRAG
# test.parameters: pH 7.5; 50 to 16A, PB 200 mM, 37° C., 18 hours
Retro-aldol conversion values, listed per item

Consider the reported Retro-aldol conversion for these compounds:
INSERT INTO results (smiles_record, target_or_system, reported_value) VALUES
  ('Nc1ccccc1', 'α-phenyl-β-hydroxy aldehyde-LYRAG 50', '25%'),
  ('COc1ccc(N)c(C(=O)O)c1', 'α-phenyl-β-hydroxy aldehyde-LYRAG 50', '8%'),
  ('Nc1cc([N+](=O)[O-])ccc1O', 'α-phenyl-β-hydroxy aldehyde-LYRAG 50', '0%');

Tell me the measured Retro-aldol conversion of "COc1ccc(N)cc1" , please.
52%

----------
# target.or.system: GFP(Y39ThzK) 2B (Aequorea victoria, UniProt P42212, F64L/H231L/S65T/V163A/Y39K)
# test.parameters: 100 equiv. [Pd], 6 h
parameter.measured: GFP fluorescence

INSERT INTO measurements (compound, reported_value) VALUES
  ('O=C(/C=C/c1ccccc1)/C=C/c1ccccc1.O=C(/C=C/c1ccccc1)/C=C/c1ccccc1.O=C(/C=C/c1ccccc1)/C=C/c1ccccc1.[Pd].[Pd]', 'Yes'),
  ('CC(=O)[O-].CC(=O)[O-].[Pd+2] [compound 9, Palladium(II) acetate]', 'Yes'),
  ('CN(C)c1ccc(P(C(C)(C)C)C(C)(C)C)cc1.CN(C)c1ccc(P(C(C)(C)C)C(C)(C)C)cc1.[Cl-].[Cl-].[Pd+2]', 'No'),
  ('C=C[CH2-].C=C[CH2-].[Cl][Pd+].[Cl][Pd+] [compound 11, Allylpalladium(II) chloride dimer]', 'No');

----------
# Test system: glyoxyl-LYRAG 16A
# protocol.text: screening of organocatalysts and aldehyde donors for OPAL reaction
# test.parameters: organocatalyst loading 1 mM; Donor R group = CH3
Second Order Rate Constant values, listed per item
# unit: M⁻¹ s⁻¹ | format: bare number

INSERT INTO results (compound, target_or_system, unit_of_measurement, reported_value) VALUES
  ('C1CNCCOC1', 'glyoxyl-LYRAG 16A', 'M⁻¹ s⁻¹', 0.0022),
  ('O=C(O)[C@@H]1CCCN1', 'glyoxyl-LYRAG 16A', 'M⁻¹ s⁻¹', 0.00009),
  ('O=C(O)[C@@H]1CCN1', 'glyoxyl-LYRAG 16A', 'M⁻¹ s⁻¹', 0.0004);

Turning now to a further record.
Tell me the measured Second Order Rate Constant of C1CN[C@H](c2nnn[nH]2)C1 [compound 38, (S)-(−)-5-(2-Pyrrolidinyl)-1H-tetrazole] , please.
0.0092

----------
# target.or.system: GFP(Y39ThzK) 2B (Aequorea victoria, UniProt P42212, F64L/H231L/S65T/V163A/Y39K)
# test.parameters: 100 equiv. [Pd], 24 h
# Protocol: Palladium reagent 9 to 12 (stock 550 mM in DMSO, final concentration 33 mM) was added to 2b (stock 330 μM in buffer D1, final concentration 300 μM) in a 0.5 mL Eppendorf tube. The reaction mixture was vortex mixed for 1 s and incubated in a water bath at 37° C. […] Initially a reaction was set up using 25 μM of 2B (final concentration), 100 μM palladium catalyst (final concentration) in PBS pH 7.4. […] Efficiency of decaging was determined by ESI-MS. […]
parameter.measured: GFP fluorescence

INSERT INTO measurements (compound, reported_value) VALUES
  ('O=C(/C=C/c1ccccc1)/C=C/c1ccccc1.O=C(/C=C/c1ccccc1)/C=C/c1ccccc1.O=C(/C=C/c1ccccc1)/C=C/c1ccccc1.[Pd].[Pd] [compound 12, Tris(dibenzylideneacetone)dipalladium(0)]', 'Yes'),
  ('CC(=O)[O-].CC(=O)[O-].[Pd+2] [compound 9, Palladium(II) acetate]', 'Yes'),
  ('CN(C)c1ccc(P(C(C)(C)C)C(C)(C)C)cc1.CN(C)c1ccc(P(C(C)(C)C)C(C)(C)C)cc1.[Cl-].[Cl-].[Pd+2] [compound 10]', 'No'),
  ('C=C[CH2-].C=C[CH2-].[Cl][Pd+].[Cl][Pd+] [compound 11, Allylpalladium(II) chloride dimer]', 'No');
